# target.or.test.system: T1, Human NKp46 antigen for immunization, screening, and testing (Kactus, NKP-HM146) (human, UniProt O76036 22-255)
# T1 construct: Bought protein; also called human NKp46 antigen protein; human NKp46 protein
# T1 sequence (O76036 other isoform, or with tags, fused parts or gaps limits assumed): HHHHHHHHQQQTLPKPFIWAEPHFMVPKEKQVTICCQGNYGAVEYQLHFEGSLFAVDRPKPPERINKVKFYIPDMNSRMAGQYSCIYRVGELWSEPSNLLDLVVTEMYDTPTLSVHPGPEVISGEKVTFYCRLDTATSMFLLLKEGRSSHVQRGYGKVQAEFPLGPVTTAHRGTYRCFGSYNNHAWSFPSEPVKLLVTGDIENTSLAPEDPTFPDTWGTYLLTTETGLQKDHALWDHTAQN
# test.name: SPR (Biacore 8K), antibody captured on anti-human Fc, NKp46 as analyte, 1:1 fit
value.type: koff (s⁻¹)
Write down the numeric answer in s⁻¹ and omit the unit.

Q) Which koff reading was recorded for the binder H4-PA27 humanized antibody (antibody, human IgG1, V domains shown, not shown: constant region of human IgG1) VH: DVQLVESGGGVVQPGRSLRLSCAASGRTESWYRMGWFRQAPGKGREVVARISGDTNIKYYAGSVKGRFTISRDNSKNTLYLQMSSLRAEDTAVYYCAADRTGATWDYWGQGTLVTVSS ?
A) 0.00266

Q) What do you have for H2-PC11 humanized antibody (antibody, human IgG1, V domains shown, not shown: constant region of human IgG1) VH: EVQLVESGGGLVQPGGSLRLSCAPSPYSANSFSMAWFRQAPGKGLEGIACIQAESGSTNVAPSVKGRFTISQDNSKNTLYLQMNSLRAEDTAVYYCAAFKRNVGGCELRPEHWRFWGQGTLVTVSS ?
A) 0.000126

Q) Also H4-PA45 humanized antibody (antibody, V domains shown, not shown: constant region of human IgG1) VH: EVQLVESGGGLVQPGGSLRLSCAASGRTFSRLPMAWFRQAPGKDREFVAAISWSGGSTYYADSMKGRFTISRDNSKNTAYLQMNSLRAEDTAVYYCAAVGDSAPYSATIVYTDARAYAYWGQGTLVTVSS ?
A) 0.00204

Q) Try the binder H4-PA31 humanized antibody (antibody, human IgG1, V domains shown, not shown: constant region of human IgG1) VH: EVQLVESGGGLVQPGGSLRLSCAVSGRTFSRLPMGWFRQAPGKDREFVAAISWSSSTTYYADSVKGRFTISRDNSKNTAYLQMNSLRAEDTAVYYCAAVGGSLDYSATVVYTAARAYADWGQGTLVTVSS
A) 0.00103
